Cited source: ChEMBL document CHEMBL1134501

Organism: Cricetulus griseus
Assay: Selectivity ratio (alpha-1B/alpha-1A) of the compound
Here the recorded Ratio is given for each entry.
measuredProperty: Ratio

- COc1cccc2c1CC[C@H]1CN(CCn3c(=O)[nH]c4cc(C#N)ccc4c3=O)C[C@@H]21: 17.3
- COc1cccc2c1CC[C@H]1CN(CCn3c(=O)[nH]c4cccc(C)c4c3=O)C[C@@H]21: 0.9
- COc1cccc2c1CC[C@H]1CN(CCn3c(=O)[nH]c4c(-c5ccccc5)csc4c3=O)C[C@@H]21: 1
- COc1cccc2c1CC[C@H]1CN(CCn3c(=O)[nH]c4c(OC)cccc4c3=O)C[C@@H]21: 2.67

###

Organism: Cricetulus griseus
Test: Selectivity ratio (alpha-1B/alpha-1A) of the compound
Below is a list of entries, each paired with its recorded Ratio value.
measuredProperty: Ratio

- COC(=O)c1cc2[nH]c(=O)n(CCN3C[C@@H]4CCc5c(OC)cccc5[C@@H]4C3)c(=O)c2s1: 2.3
- COc1cccc2c1CC[C@H]1CN(CCn3c(=O)[nH]c4c(C)cc(C)cc4c3=O)C[C@@H]21: 5.96
- COc1cc2c(cc1OC)C(=O)N(CCN1C[C@@H]3CCc4c(OC)cccc4[C@@H]3C1)CC2: 7.83
- COc1cccc2c1CC[C@H]1CN(CCn3c(=O)[nH]c4cscc4c3=O)C[C@@H]21: 2.1

###

pKi: −log10 of the molar value.
As an illustration, consider measured pKi for molecules on Alpha-1A adrenergic receptor (Rattus norvegicus, UniProt P43140).
Sequence (P43140 whole entry): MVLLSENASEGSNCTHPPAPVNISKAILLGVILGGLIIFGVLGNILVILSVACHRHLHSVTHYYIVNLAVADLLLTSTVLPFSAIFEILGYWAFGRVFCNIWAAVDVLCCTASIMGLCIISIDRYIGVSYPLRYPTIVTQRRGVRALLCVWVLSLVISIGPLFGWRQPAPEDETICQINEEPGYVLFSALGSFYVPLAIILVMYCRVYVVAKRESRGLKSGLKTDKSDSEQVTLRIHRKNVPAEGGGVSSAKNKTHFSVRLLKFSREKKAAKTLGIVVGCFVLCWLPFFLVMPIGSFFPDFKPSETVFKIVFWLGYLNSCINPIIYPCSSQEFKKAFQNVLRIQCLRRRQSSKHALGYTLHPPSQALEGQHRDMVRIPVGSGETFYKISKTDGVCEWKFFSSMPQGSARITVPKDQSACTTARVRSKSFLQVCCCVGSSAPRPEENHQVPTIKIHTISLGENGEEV
measuredProperty: pKi

• COc1cc2c(cc1OC)CN(CCN1C[C@@H]3CCc4c(OC)cccc4[C@@H]3C1)CC2 = 7.09
• COc1cccc2c1CC[C@H]1CN(CCn3c(=O)[nH]c4c(C)c(OC)sc4c3=O)C[C@@H]21 = 8.96
• COc1cccc2c1CC[C@H]1CN(CCn3c(=O)[nH]c4c(OC)cccc4c3=O)C[C@@H]21 = 9.07
• COc1cccc2c1CC[C@H]1CN(CCn3c(=O)[nH]c4cc(NC(C)=O)ccc4c3=O)C[C@@H]21 = 9.37
• COc1cccc2c1CC[C@H]1CN(CCn3c(=O)[nH]c4cscc4c3=O)C[C@@H]21 = 9.32
• COc1cccc2c1CC[C@H]1CN(CCn3c(=O)[nH]c4nccnc4c3=O)C[C@@H]21 = 8.04
• COc1cccc2c1CC[C@H]1CN(CCn3c(=O)[nH]c4ccccc4c3=O)C[C@@H]21 = 9.17
• COc1cccc2c1CC[C@H]1CN(CCn3c(=O)[nH]c4c(-c5ccccc5)csc4c3=O)C[C@@H]21 = 9.48
• COc1cccc2c1CC[C@H]1CN(CCn3c(=O)[nH]c4cccc(Cl)c4c3=O)C[C@@H]21 = 9.15
• COc1cccc2c1CC[C@H]1CN(CCn3c(=O)[nH]c4cc([N+](=O)[O-])ccc4c3=O)C[C@@H]21 = 9.04
• COc1cccc2c1CCC1CN(CCn3c(=O)[nH]c4ccsc4c3=O)CC21 (stereo unspecified) = 8.86
• COc1cc2c(cc1OC)NC(=O)N(CCN1C[C@@H]3CCc4c(OC)cccc4[C@@H]3C1)C2 = 6.91
• COc1cccc2c1CC[C@H]1CN(CCn3c(=O)[nH]c4cc(-c5ccccc5)sc4c3=O)C[C@@H]21 = 8.11
• COc1cccc2c1CC[C@H]1CN(CCn3c(=O)[nH]c4cccc(C)c4c3=O)C[C@@H]21 = 8.94
• COc1ccc2c(=O)n(CCN3C[C@@H]4CCc5c(OC)cccc5[C@@H]4C3)c(=O)[nH]c2c1 = 10.05
• COc1cccc2c1CC[C@H]1CN(CCn3c(=O)[nH]c4sccc4c3=O)C[C@@H]21 = 8.99

###

Biological target: Alpha-1D adrenergic receptor (Rattus norvegicus, UniProt P23944)
Sequence (P23944 whole entry): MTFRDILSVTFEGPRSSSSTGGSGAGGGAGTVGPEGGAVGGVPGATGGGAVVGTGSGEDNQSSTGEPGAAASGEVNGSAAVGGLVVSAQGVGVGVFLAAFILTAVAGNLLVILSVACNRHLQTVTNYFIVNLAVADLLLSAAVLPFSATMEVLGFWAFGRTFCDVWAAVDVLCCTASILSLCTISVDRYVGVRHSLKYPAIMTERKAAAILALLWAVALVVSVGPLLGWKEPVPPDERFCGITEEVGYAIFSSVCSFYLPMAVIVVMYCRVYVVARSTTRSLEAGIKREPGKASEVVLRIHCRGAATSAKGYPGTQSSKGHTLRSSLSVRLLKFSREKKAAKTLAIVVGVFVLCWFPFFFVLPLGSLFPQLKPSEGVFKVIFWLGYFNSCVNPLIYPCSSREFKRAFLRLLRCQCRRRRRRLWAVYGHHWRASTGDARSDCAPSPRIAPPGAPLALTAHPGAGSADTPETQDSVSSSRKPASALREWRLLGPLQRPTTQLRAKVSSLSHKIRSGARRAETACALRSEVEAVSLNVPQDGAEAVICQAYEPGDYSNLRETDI
measuredProperty: log10 Ki (log10 of the value in nM)

* COc1cccc2c1CC[C@H]1CN(CCn3c(=O)[nH]c4cscc4c3=O)C[C@@H]21 | -0.28
* COc1cc2ncn(CCN3C[C@@H]4CCc5c(OC)cccc5[C@@H]4C3)c(=O)c2cc1OC | 0.89
* COc1cccc2c1CC[C@H]1CN(CCn3c(=O)[nH]c4[nH]ccc4c3=O)C[C@@H]21 | 0.22
* COc1ccc2c(=O)n(CCN3C[C@@H]4CCc5c(OC)cccc5[C@@H]4C3)c(=O)[nH]c2c1 | -0.68
* COc1cccc2c1CC[C@H]1CN(CCn3c(=O)[nH]c4c(C)cc(C)cc4c3=O)C[C@@H]21 | 0.46
* COc1cccc2c1CC[C@H]1CN(CCn3c(=O)[nH]c4ccncc4c3=O)C[C@@H]21 | 0.46
* COc1cc2c(cc1OC)C(=O)N(CCN1C[C@@H]3CCc4c(OC)cccc4[C@@H]3C1)CN2 | 1.86
* COc1cc2c(cc1OC)CN(CCN1C[C@@H]3CCc4c(OC)cccc4[C@@H]3C1)CC2 | 1.92
* COc1cccc2c1CC[C@H]1CN(CCn3c(=O)[nH]c4cc(C)c(C)cc4c3=O)C[C@@H]21 | -0.14
* COc1cccc2c1CC[C@H]1CN(CCn3c(=O)[nH]c4cccnc4c3=O)C[C@@H]21 | 0.40
* COc1cc2c(cc1OC)NC(=O)N(CCN1C[C@@H]3CCc4c(OC)cccc4[C@@H]3C1)C2 | 2.23
* COc1cccc2c1CC[C@H]1CN(CCn3c(=O)[nH]c4c(OC)c(OC)ccc4c3=O)C[C@@H]21 | -0.17
* COc1cc2[nH]c(=O)n(CCN3C[C@@H]4CCc5c(OC)cccc5[C@@H]4C3)c(=O)c2cc1Cl | 0.43
* COc1cccc2c1CC[C@H]1CN(CCn3c(=O)[nH]c4cccc(Cl)c4c3=O)C[C@@H]21 | -0.16
* COc1cc2c(=O)n(CCN3C[C@@H]4CCc5c(OC)cccc5[C@@H]4C3)c(=O)n(C)c2cc1OC | 0.57
* COc1cccc2c1CC[C@H]1CN(CCn3c(=O)[nH]c4ncccc4c3=O)C[C@@H]21 | 0.30
* COc1cccc2c1CC[C@H]1CN(CCn3c(=O)[nH]c4c(-c5ccccc5)csc4c3=O)C[C@@H]21 | -0.18
* COc1cccc2c1CC[C@H]1CN(CCn3c(=O)[nH]c4cc(C#N)ccc4c3=O)C[C@@H]21 | -0.11
* COc1cccc2c1CC[C@H]1CN(CCn3c(=O)[nH]c4sccc4c3=O)C[C@@H]21 | 0.00
* COc1cc2c(cc1OC)C(=O)N(CCN1C[C@@H]3CCc4c(OC)cccc4[C@@H]3C1)CC2 | 1.77
* COc1cc2[nH]c(=O)n(CCN3C[C@@H]4CCc5c(OC)cccc5[C@@H]4C3)c(=O)c2s1 | -0.62

###

Species on record: Cricetulus griseus
Experiment: Selectivity ratio (alpha-1B/alpha-1A) of the compound
The label depends only on Ratio: Fulfilled if it is at least 2, Not fulfilled if it is smaller.

• COc1cc2c(cc1OC)NC(=O)N(CCN1C[C@@H]3CCc4c(OC)cccc4[C@@H]3C1)C2 = Not fulfilled
• COc1cccc2c1CCC1CN(CCn3c(=O)[nH]c4ccsc4c3=O)CC21 (stereo not drawn) = Not fulfilled
• COc1cccc2c1CC[C@H]1CN(CCn3c(=O)[nH]c4cc(-c5ccccc5)sc4c3=O)C[C@@H]21 = Not fulfilled
• COc1ccc2[nH]c(=O)n(CCN3C[C@@H]4CCc5c(OC)cccc5[C@@H]4C3)c(=O)c2c1 = Fulfilled
• COc1cccc2c1CC[C@H]1CN(CCn3c(=O)[nH]c4cccc(Cl)c4c3=O)C[C@@H]21 = Not fulfilled
• COc1cc2c(cc1OC)CN(CCN1C[C@@H]3CCc4c(OC)cccc4[C@@H]3C1)CC2 = Not fulfilled
• COc1ccc2c(=O)n(CCN3C[C@@H]4CCc5c(OC)cccc5[C@@H]4C3)c(=O)[nH]c2c1 = Fulfilled
• COC(=O)c1ccc2c(=O)n(CCN3C[C@@H]4CCc5c(OC)cccc5[C@@H]4C3)c(=O)[nH]c2c1 = Fulfilled
• COc1cccc2c1CC[C@H]1CN(CCn3c(=O)[nH]c4[nH]ccc4c3=O)C[C@@H]21 = Fulfilled
• COc1cc2[nH]c(=O)n(CCN3C[C@@H]4CCc5c(OC)cccc5[C@@H]4C3)c(=O)c2s1 = Fulfilled
• COc1cccc2c1CC[C@H]1CN(CCn3c(=O)[nH]c4c(OC)c(OC)ccc4c3=O)C[C@@H]21 = Fulfilled
• COc1cccc2c1CC[C@H]1CN(CCn3c(=O)[nH]c4nccnc4c3=O)C[C@@H]21 = Not fulfilled
• COc1cccc2c1CC[C@H]1CN(CCn3c(=O)[nH]c4ccccc4c3=O)C[C@@H]21 = Not fulfilled
• COc1cccc2c1CC[C@H]1CN(CCn3c(=O)[nH]c4ccncc4c3=O)C[C@@H]21 = Not fulfilled
• COc1cc2[nH]c(=O)n(CCN3C[C@@H]4CCc5c(OC)cccc5[C@@H]4C3)c(=O)c2cc1Cl = Fulfilled
• COc1cc2c(cc1OC)NCN(CCN1C[C@@H]3CCc4c(OC)cccc4[C@@H]3C1)C2 = Not fulfilled
• COc1cc(N)c(C(=O)NCCN2C[C@@H]3CCc4c(OC)cccc4[C@@H]3C2)cc1OC = Fulfilled
• COc1cccc2c1CC[C@H]1CN(CCn3c(=O)[nH]c4c(C)c(C)ccc4c3=O)C[C@@H]21 = Fulfilled
• COc1cc2c(cc1OC)C(=O)N(CCN1C[C@@H]3CCc4c(OC)cccc4[C@@H]3C1)CN2 = Fulfilled
• COc1cccc2c1CC[C@H]1CN(CCn3c(=O)[nH]c4c(C)c(OC)sc4c3=O)C[C@@H]21 = Fulfilled
• COc1cccc2c1CC[C@H]1CN(CCn3c(=O)[nH]c4c(C(C)C)c(OC)sc4c3=O)C[C@@H]21 = Fulfilled
• COc1cccc2c1CC[C@H]1CN(CCn3c(=O)[nH]c4cc([N+](=O)[O-])ccc4c3=O)C[C@@H]21 = Fulfilled
• COc1cc2c(=O)n(CCN3C[C@@H]4CCc5c(OC)cccc5[C@@H]4C3)c(=O)n(C)c2cc1OC = Fulfilled
• COc1cccc2c1CC[C@H]1CN(CCn3c(=O)[nH]c4cccnc4c3=O)C[C@@H]21 = Fulfilled
• COc1cccc2c1CC[C@H]1CN(CCn3c(=O)[nH]c4cnccc4c3=O)C[C@@H]21 = Fulfilled
• COc1cccc2c1CC[C@H]1CN(CCn3c(=O)[nH]c4cc(C)c(C)cc4c3=O)C[C@@H]21 = Fulfilled
